Below are IC50 values for MALT1 (Homo sapiens) collected from several publications.
assay-metric: IC50

{"molecule": "C=CC(F)c1ccnc(-n2cc(S(=O)(=O)Nc3c(OC)ccc4cnn(C)c34)cn2)c1 (centres unmarked)", "assay-metric": "IC50", "measured-value": "≤ 400 nM"}
{"molecule": "Nc1cc(F)ccc1-c1cc(Cl)c(C(=O)Nc2cnc(-n3nccn3)c(Cl)c2)cc1N", "assay-metric": "IC50", "measured-value": "10 to 100 nM"}
{"molecule": "Cn1ccn(-c2ccc(S(=O)(=O)Nc3cccc4cnn(C)c34)cn2)c1=O", "assay-metric": "IC50", "measured-value": "> 2500 nM"}
{"molecule": "Cn1cc2ccc(F)c(NS(=O)(=O)c3cnn(-c4cc(C(F)(F)F)ccn4)c3)c2n1", "assay-metric": "IC50", "measured-value": "> 2500 nM"}
{"molecule": "Cn1ncc2cccc(NS(=O)(=O)c3cnn(-c4cc([C@]5(O)C[C@H](C)C5)ccn4)c3)c21", "assay-metric": "IC50", "measured-value": "> 2500 nM"}
{"molecule": "Cn1ncc2cccc(NS(=O)(=O)c3ccc(-c4cc[nH]c(=O)c4)nc3)c21", "assay-metric": "IC50", "measured-value": "> 2500 nM"}
{"molecule": "Cn1ncc2cccc(NS(=O)(=O)c3ccc(-n4cc(C(C)(C)O)cn4)nc3)c21", "assay-metric": "IC50", "measured-value": "> 2500 nM"}
{"molecule": "COCC(C)(C)c1ccnc(-n2cc(S(=O)(=O)Nc3c(OC)ccc4cnn(C)c34)cn2)c1", "assay-metric": "IC50", "measured-value": "400 to 1000 nM"}

###

Multiple publications report pIC50 for MALT1 (Homo sapiens, UniProt Q9UDY8); what follows is a combined list.
pIC50: −log10 of the molar value.

{"smiles-text": "COc1ccc2cnn(C)c2c1NS(=O)(=O)c1ccc(-c2nnc(C)n2C)nc1", "pIC50": "< 5.60"}
{"smiles-text": "Cn1nc(Cl)c2cccc(NS(=O)(=O)c3cnn(-c4cc(C(F)(F)F)ccn4)c3)c21", "pIC50": "< 5.60"}
{"smiles-text": "COc1ccc2cnn(C)c2c1NS(=O)(=O)c1cnn(-c2cc(N3CC(C(N)=O)C3)ccn2)c1", "pIC50": "< 5.60"}
{"smiles-text": "C#Cc1cccc(Cl)c1-c1cc(Cl)c(C(=O)Nc2cnc(-n3nccn3)c(C(F)(F)F)c2)cc1F", "pIC50": "≥ 8.00"}
{"smiles-text": "COc1ccc2cnn(C)c2c1N(C)S(=O)(=O)c1ccc(-c2cc(C(F)(F)F)n(C)n2)nc1", "pIC50": "> 6.40"}
{"smiles-text": "COc1ncc2cnn(C)c2c1NS(=O)(=O)c1cnn(-c2cc(N3CC[C@H](C)C3)ccn2)c1", "pIC50": "< 5.60"}
{"smiles-text": "COc1ncc2cnn(C)c2c1NS(=O)(=O)c1ccc(-n2cc(F)cn2)nc1", "pIC50": "> 6.40"}
{"smiles-text": "CC[C@@H](O)c1ccnc(-n2cc(S(=O)(=O)Nc3cccc4cnn(C)c34)cn2)c1", "pIC50": "< 5.60"}
{"smiles-text": "CN1CC(c2ccnc(-n3cc(S(=O)(=O)Nc4cccc5cnn(C)c45)cn3)c2)C1", "pIC50": "< 5.60"}
{"smiles-text": "Nc1cc(F)ccc1-c1cc(F)c(C(=O)Nc2cnc(-n3nccn3)c(Cl)c2)cc1Cl", "pIC50": "≥ 8.00"}
{"smiles-text": "CCc1ccc2cn(C)nc2c1NS(=O)(=O)c1ccc(-n2cc(C(F)(F)F)cn2)nc1", "pIC50": "> 6.40"}
{"smiles-text": "COc1ccc2[nH]nc(C)c2c1N(C)S(=O)(=O)c1cnn(-c2cc(C(F)(F)F)ccn2)c1", "pIC50": "≥ 6.40"}
{"smiles-text": "COc1ccc2cnn(C)c2c1NS(=O)(=O)c1ccc(-c2noc(C)n2)nc1", "pIC50": "5.60 to 6.00"}
{"smiles-text": "Nc1cc(F)ccc1-c1cc(Cl)c(C(=O)Nc2cnc(C(=O)NCC(F)(F)C(F)(F)F)c(Cl)c2)cc1F", "pIC50": "6.30 to 7.00"}
{"smiles-text": "Cn1ncc2cccc(NS(=O)(=O)c3ccc(-c4cccc(=O)[nH]4)nc3)c21", "pIC50": "< 5.60"}
{"smiles-text": "COc1ccc2cnn(C)c2c1NS(=O)(=O)c1ccc(-c2cc(C(F)(F)F)n(C)n2)nc1", "pIC50": "> 6.40"}
{"smiles-text": "COc1ccc2cnn(C)c2c1NS(=O)(=O)c1ccc(-n2ncc(CO)c2C)nc1", "pIC50": "6.00 to 6.40"}
{"smiles-text": "CN1CC(O)(c2ccnc(-n3cc(S(=O)(=O)Nc4cccc5cnn(C)c45)cn3)c2)C1", "pIC50": "< 5.60"}
{"smiles-text": "[2H]c1nn(C([2H])([2H])[2H])c2c(NS(=O)(=O)c3cnn(-c4cc(C(C)(F)F)ccn4)c3)cccc12", "pIC50": "5.60 to 6.00"}
{"smiles-text": "COc1ccc2cnn(C)c2c1NS(=O)(=O)c1cnn(-c2cc(N3CCC(C)CC3)ccn2)c1", "pIC50": "< 5.60"}
{"smiles-text": "Cn1ncc2cccc(NS(=O)(=O)c3cnn(-c4cc(N5CC(C)(C)OC5=O)ccn4)c3)c21", "pIC50": "< 5.60"}
{"smiles-text": "C[C@H]1CN(C)C(=O)N1c1ccnc(-n2cc(S(=O)(=O)Nc3cccc4cnn(C)c34)cn2)c1", "pIC50": "< 5.60"}
{"smiles-text": "Cn1ncc2cccc(NS(=O)(=O)c3ccc(-c4cc5ccccc5[nH]4)nc3)c21", "pIC50": "< 5.60"}
{"smiles-text": "CCc1ccc2cnn(C)c2c1NS(=O)(=O)c1cnc(-n2cc(C(F)(F)F)cn2)nc1", "pIC50": "< 5.60"}
{"smiles-text": "Cn1cc2ccc(Cl)c(NS(=O)(=O)c3cnn(-c4ccnc(C(F)(F)F)c4)c3)c2n1", "pIC50": "< 5.60"}
{"smiles-text": "COc1ccc2cnn(C)c2c1NS(=O)(=O)c1cnn(-c2cc(C(C)(C)C)ccn2)c1", "pIC50": "≥ 6.40"}
{"smiles-text": "COc1ccc2cnn(C)c2c1NS(=O)(=O)c1cnn(-c2cc(N3CC(C)(F)C3)ccn2)c1", "pIC50": "< 5.60"}
{"smiles-text": "COc1ccc2cnn(C)c2c1NS(=O)(=O)c1cnn(-c2cc(N3CC(C)(OC)C3)ccn2)c1", "pIC50": "< 5.60"}
{"smiles-text": "COC1(c2ccnc(-n3cc(S(=O)(=O)Nc4cccc5cnn(C)c45)cn3)c2)CN(C(C)=O)C1", "pIC50": "< 5.60"}
{"smiles-text": "Cn1ncc2cccc(NS(=O)(=O)c3ccc(-c4cc(C(F)(F)F)n[nH]4)nc3)c21", "pIC50": "6.00 to 6.40"}
{"smiles-text": "Cc1cnn(-c2ccc(S(=O)(=O)Nc3cccc4cnn(C)c34)cn2)c1C", "pIC50": "< 5.60"}
